# system: T1, human DLL3 (ACRO, DLL3-H52H4) (human, UniProt Q9NYJ7 27-492)
# T1 construct: Bought
# T1 sequence: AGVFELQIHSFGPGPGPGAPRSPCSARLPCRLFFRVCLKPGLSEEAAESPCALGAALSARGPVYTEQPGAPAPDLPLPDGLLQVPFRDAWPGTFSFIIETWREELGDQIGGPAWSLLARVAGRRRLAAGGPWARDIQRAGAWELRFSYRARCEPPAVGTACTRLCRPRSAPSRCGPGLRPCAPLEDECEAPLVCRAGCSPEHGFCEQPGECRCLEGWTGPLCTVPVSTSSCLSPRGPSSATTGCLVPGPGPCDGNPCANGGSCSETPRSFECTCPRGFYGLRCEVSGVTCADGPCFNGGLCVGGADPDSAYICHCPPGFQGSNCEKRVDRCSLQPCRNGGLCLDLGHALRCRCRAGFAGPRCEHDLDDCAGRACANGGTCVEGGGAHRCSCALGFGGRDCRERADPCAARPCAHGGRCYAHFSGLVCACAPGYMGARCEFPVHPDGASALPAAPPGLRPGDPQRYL
# assay_explanation: SPR Biacore 8K, Ab captured on Protein A
Recorded kon by entry
parameter: kon (M⁻¹ s⁻¹)

[
  {
    "binder": "hu30L5H5 (antibody, human IgG1, kappa, V domains shown) VH: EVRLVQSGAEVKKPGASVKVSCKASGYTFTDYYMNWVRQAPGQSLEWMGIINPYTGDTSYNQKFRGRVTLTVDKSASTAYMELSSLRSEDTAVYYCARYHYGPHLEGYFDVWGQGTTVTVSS VL: DIQMTQSPSSLSASVGDRVTITCKASENVGYVSWYQQKPGKSPKLLIYGASNRYTGVPDRFSGSGSGTDFTLTISSLQPEDFATYYCGQSYSYPLTFGSGTKLEIKR",
    "value_reported": 446000
  },
  {
    "binder": "hu6L4H6 (antibody, human IgG1, kappa, V domains shown) VH: EVQLVQSGSELKKPGASVKVSCKASGYTFTDYYMNWVRQAPGQGLEWMGIINPYSGVTIYNHKFKGRFVLSVDKSSNTAYLQISSLKAEDTAVYYCARQDSLLDYAMDYWGQGTTVTVSS VL: DIQMTQSPSSLSASVGDRVTITCHASQGISGNMGWLQQKPGKAPKGLIYHGANLEDGVPSRFSGSGSGADYTLTISSLQPEDFADYYCVQYAQFPYTFGGGTKVEIKR",
    "value_reported": "1.91e+06"
  },
  {
    "binder": "hu30L2H6 (antibody, human IgG1, kappa, V domains shown) VH: EVRLVQSGAEVKKPGASVKVSCKASGYTFTDYYMNWVRQAPGQSLEWMGIINPYNVDTSYNQKFRGRVTLTVDKSASTAYMELSSLRSEDTAVYYCARYHYGPHLEGYFDVWGQGTTVTVSS VL: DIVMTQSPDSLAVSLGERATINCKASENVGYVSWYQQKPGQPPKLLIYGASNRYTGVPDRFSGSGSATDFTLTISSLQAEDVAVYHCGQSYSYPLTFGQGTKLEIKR",
    "value_reported": 915000
  }
]
